Below are molecules with their pIC50 as measured on Prostaglandin G/H synthase 2 (Homo sapiens).
Sequence (P35354 whole entry): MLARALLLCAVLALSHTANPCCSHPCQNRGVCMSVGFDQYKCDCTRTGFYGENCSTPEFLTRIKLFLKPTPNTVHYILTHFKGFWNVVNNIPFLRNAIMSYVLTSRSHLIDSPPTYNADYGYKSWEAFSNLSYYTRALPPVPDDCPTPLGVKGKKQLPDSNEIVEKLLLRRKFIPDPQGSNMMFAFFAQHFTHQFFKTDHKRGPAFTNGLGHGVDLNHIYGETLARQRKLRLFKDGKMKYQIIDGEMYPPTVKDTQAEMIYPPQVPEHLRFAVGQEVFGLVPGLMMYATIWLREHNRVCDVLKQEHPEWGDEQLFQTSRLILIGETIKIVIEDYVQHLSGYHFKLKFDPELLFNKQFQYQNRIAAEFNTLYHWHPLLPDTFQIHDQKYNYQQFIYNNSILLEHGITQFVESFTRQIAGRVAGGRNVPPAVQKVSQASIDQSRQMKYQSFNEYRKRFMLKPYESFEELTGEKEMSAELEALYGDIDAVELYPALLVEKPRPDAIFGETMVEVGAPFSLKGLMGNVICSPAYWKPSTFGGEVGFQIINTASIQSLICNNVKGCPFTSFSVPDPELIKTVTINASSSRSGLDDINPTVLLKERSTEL
One number for each entry, as −log10 of the molar value.

> print(dat)
                           molecular.string  property  observed.measurement
1  CCCCCNC(=O)c1cc(C(C)(C)C)c2c(c1)C(C)(C)CO2     pIC50                  6.60
2    CC(=O)Nc1cc(C(C)(C)C)c2c(c1)C(C)(C)CO2     pIC50                  5.46
3  CN(C(=O)c1cc(C(C)(C)C)c2c(c1)C(C)(C)CO2)C1CC1     pIC50                  6.00
4  CC(C)(C)c1cc(-c2csc(N=C(N)N)n2)cc2c1OCC2(C)C     pIC50                  5.05
5  CCCNC(=O)c1cc(C(C)(C)C)c2c(c1)C(C)(C)CO2     pIC50                  6.02

Input: Checklist item: pIC50 tested on Prostaglandin G/H synthase 2 (Homo sapiens), entry CC1(C)CC(c2cc(C(C)(C)C)c3c(c2)C(C)(C)CO3)=NO1 , value?
Output: 6.70
